target: FGFR1 (Homo sapiens)
Sequence (P11362 22-822, species assumed): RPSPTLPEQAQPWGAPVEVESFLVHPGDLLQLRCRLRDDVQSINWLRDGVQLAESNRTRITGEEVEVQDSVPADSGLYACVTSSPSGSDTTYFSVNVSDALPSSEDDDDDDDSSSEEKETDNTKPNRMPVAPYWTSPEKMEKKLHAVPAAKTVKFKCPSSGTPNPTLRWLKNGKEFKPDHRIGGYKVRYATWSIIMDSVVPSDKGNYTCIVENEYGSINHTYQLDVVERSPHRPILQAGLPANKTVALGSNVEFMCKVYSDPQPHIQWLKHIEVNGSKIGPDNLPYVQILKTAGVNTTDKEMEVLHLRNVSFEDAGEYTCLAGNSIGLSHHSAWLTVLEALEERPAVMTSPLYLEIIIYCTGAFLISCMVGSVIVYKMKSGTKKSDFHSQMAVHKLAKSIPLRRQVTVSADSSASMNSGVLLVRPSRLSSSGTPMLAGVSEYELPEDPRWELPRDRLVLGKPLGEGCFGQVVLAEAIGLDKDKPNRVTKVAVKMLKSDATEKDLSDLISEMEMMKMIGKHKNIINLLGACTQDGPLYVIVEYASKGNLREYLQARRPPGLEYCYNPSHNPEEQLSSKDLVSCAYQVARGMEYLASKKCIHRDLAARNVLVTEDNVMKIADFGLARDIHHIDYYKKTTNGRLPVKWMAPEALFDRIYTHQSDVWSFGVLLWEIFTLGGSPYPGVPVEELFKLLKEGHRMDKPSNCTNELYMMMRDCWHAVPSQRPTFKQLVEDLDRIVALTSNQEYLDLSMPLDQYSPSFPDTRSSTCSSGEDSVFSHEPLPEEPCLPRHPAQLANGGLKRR
Assay Readout: Ki (nM)
// units = nM; emit number, no label

Incoming: Provide the documented Ki with FGFR1 (Homo sapiens) as the system for Cc1cc(Nc2cc(N3CCC3)nc(Sc3ccc(NC(=O)c4ccccc4Cl)cc3)n2)[nH]n1
Outgoing: 5

---

molecular target: Aurora-1 (Aurora B) (Homo sapiens); test: Aurora-1 (Aurora B) inhibition assay (radiometric); type: biochemical; settings: 800 μM ATP, Kemptide, 25° C.; read-out: Aurora B Ki
Sequence (Q96GD4 whole entry): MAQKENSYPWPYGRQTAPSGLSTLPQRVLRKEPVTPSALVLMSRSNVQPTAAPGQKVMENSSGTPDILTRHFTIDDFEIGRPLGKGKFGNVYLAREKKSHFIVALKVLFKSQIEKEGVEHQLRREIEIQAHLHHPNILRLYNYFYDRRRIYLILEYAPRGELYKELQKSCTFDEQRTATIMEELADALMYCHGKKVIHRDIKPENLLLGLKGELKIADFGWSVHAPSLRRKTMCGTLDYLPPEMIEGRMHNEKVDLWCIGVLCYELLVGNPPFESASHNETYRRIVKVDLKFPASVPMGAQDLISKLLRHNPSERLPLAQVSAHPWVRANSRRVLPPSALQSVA
pKi: −log10 of the molar value.
Outcome: YES for pKi of at least 8; NO for anything lower.

{"Smiles Entry": "Cc1cc(Nc2cc(N3CCC3)nc(Sc3ccc(NC(=O)c4cccc(Cl)c4)cc3)n2)n[nH]1", "Test Target": "Aurora-1 (Aurora B) (Homo sapiens)", "Class Assignment": "NO"}

Consider the additional compound presented here.
Incoming: Decide: is the reported value of pKi for Cc1cc(Nc2cc(N3CCC3)nc(Sc3ccc(NC(=O)c4cccc(F)c4F)cc3)n2)[nH]n1 equal to or greater than 8?
Outgoing: YES

Values compiled from patent US8557833B2.
